target: human M3 receptor (Homo sapiens); construct: expressed in transfected cells; test: HTRF IP-One curve shift assay, M3; format: cell-based; conditions: MK-4710 concentration 123 nM
Sequence (P20309 whole entry): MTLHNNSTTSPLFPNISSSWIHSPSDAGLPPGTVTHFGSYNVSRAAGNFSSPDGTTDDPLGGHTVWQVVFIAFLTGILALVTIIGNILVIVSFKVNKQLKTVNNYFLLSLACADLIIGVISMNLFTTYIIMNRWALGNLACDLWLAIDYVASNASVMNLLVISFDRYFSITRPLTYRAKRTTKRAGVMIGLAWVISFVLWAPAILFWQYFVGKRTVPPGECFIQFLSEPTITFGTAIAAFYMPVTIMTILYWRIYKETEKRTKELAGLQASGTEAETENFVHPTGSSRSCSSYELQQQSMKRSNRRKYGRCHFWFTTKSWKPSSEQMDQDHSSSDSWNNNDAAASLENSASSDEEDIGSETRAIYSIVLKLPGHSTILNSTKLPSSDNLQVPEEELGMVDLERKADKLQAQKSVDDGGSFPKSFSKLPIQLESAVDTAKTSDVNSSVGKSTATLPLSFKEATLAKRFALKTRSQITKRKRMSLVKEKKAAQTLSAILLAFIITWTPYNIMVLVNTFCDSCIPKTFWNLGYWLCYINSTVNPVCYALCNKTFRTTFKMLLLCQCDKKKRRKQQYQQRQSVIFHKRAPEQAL
pEC50: −log10 of the molar value.
Quantity Measured: pEC50

>>> value_reported("CC1OC2(CS1)CN1CCC2CC1 (stereo not shown) [cevimeline, Cevimeline, reference compound]")
5.31

---

molecular target: human M4 receptor (Homo sapiens, UniProt P08173); construct: expressed in transfected cells; assay: SPA GTP (GTPgS) binding curve shift assay, M4; type: biochemical; conditions: MK-4710 concentration 3330 nM
Sequence (P08173 whole entry): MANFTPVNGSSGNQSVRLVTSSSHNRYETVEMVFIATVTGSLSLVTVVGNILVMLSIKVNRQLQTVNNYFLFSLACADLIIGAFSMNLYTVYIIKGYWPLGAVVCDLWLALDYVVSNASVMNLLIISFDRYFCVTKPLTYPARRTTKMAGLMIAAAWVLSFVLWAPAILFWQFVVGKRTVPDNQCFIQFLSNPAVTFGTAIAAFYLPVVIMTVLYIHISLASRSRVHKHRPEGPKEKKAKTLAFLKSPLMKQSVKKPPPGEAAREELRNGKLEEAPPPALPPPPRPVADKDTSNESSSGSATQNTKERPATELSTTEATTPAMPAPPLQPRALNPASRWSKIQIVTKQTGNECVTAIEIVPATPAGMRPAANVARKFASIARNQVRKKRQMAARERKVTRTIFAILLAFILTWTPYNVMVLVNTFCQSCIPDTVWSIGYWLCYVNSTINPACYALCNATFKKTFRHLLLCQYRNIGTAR
pEC50: −log10 of the molar value.
Quantity Measured: pEC50

>>> value_reported("CCCCCOc1nsnc1C1=CCCCN1C")
8.82

---

Molecular target: human M2 receptor (Homo sapiens, UniProt P08172)
Sequence (P08172 1-466): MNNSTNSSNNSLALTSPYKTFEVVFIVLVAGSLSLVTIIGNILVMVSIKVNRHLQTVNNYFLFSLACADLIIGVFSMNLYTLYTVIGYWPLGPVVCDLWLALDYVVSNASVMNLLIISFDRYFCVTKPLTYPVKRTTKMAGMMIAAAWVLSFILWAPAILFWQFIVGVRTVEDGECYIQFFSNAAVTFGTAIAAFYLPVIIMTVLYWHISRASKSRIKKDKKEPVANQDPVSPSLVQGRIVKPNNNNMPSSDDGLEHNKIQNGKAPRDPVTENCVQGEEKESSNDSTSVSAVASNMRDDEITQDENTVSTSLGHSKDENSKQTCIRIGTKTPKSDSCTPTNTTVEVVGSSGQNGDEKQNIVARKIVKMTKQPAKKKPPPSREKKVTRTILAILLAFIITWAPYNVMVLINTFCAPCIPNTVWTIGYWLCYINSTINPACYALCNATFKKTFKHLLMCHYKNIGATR
Assay: SPA GTP (GTPgS) binding curve shift assay, M2
Assay type: biochemical
Conditions: M2; MK-4710 concentration […]
Quantity Measured: Emax at […] (%)

>>> value_reported("CCCCCCCOc1nsnc1C1=CCCCN1C")
57
>>> value_reported("CC1OC2(CS1)CN1CCC2CC1 (stereo not shown) [cevimeline, Cevimeline, reference compound]")
42.1
>>> value_reported("CCCCCCOc1nsnc1C1=CCCN(C)C1 [xanomeline, reference compound]")
60.1
>>> value_reported("CCCCCOc1nsnc1C1=CCCCN1C")
60.6

---

target: human M5 receptor (Homo sapiens, UniProt P08912); construct: expressed in transfected cells; assay: HTRF IP-One curve shift assay, M5; type: cell-based; settings: M5; Emraclidine concentration 1110 nM
Sequence (P08912 whole entry): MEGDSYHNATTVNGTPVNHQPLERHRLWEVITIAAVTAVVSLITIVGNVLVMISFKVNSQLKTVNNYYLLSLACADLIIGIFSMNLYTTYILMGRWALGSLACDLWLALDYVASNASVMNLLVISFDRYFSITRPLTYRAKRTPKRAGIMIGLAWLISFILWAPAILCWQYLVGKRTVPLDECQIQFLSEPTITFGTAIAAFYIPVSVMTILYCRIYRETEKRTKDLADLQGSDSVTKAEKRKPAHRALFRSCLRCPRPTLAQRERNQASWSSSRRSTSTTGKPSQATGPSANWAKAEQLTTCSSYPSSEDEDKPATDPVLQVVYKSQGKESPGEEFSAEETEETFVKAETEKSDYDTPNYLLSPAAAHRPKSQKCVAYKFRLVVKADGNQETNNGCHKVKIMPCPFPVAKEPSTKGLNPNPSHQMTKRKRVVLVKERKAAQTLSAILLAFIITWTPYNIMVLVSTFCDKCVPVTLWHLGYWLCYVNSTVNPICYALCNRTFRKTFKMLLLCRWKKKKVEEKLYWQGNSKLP
pEC50: −log10 of the molar value.
Quantity Measured: pEC50

>>> value_reported("CCCCCOc1nsnc1C1=CCCCN1C")
6.61

---

Some compounds, each annotated with its measured τ (agonist pharmacology).
biological target: human M3 receptor (Homo sapiens); construct: expressed in transfected cells; experiment: HTRF IP-One curve shift assay, M3; type: cell-based; details: M4 PAM Emraclidine
Quantity Measured: τ (agonist pharmacology)

>>> value_reported("CCCCCOc1nsnc1C1=CCCCN1C [KTX-517]")
0.0
>>> value_reported("CC1OC2(CS1)CN1CCC2CC1 (stereo not shown) [cevimeline, Cevimeline, reference compound]")
0.1
>>> value_reported("CCCCCCOc1nsnc1C1=CCCN(C)C1 [xanomeline, reference compound]")
0.1
>>> value_reported("CCCCCCCOc1nsnc1C1=CCCCN1C [KTX-593]")
0.0
